tested on: THRa homodimer (NR concentration 90 nM); test: PBM binding z-score (relative to random genomic background probes); higher = stronger binding; sequences stand for … in GC…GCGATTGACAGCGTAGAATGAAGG
Grouping by measured PBM binding z-score is done with the following cut points: low band: < 0.3; middle band: ≥ 0.3 and < 1; high band: ≥ 1

A selection of reference data follows.
| sequence chain | classification |
| --- | --- |
| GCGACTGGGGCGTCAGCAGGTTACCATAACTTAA | low band |
| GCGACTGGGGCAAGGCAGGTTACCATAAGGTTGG | low band |
| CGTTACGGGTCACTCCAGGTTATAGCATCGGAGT | middle band |
| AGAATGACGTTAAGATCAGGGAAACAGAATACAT | low band |
| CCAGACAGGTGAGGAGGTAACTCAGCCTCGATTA | middle band |

Consider now this further sequence.
## Task Kindly state the category for this sequence: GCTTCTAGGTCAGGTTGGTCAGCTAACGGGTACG
## Result high band

* * *

system: RARa:RXR (NR concentration 270 nM, RXRa partner concentration 90 nM); assay: PBM binding z-score (relative to random genomic background probes); higher = stronger binding; sequences stand for … in GC…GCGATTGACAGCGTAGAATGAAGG
outcome measure: PBM binding z-score
Please respond with just the number, no unit label.

| sequence chain | target desc | readout number |
| --- | --- | --- |
| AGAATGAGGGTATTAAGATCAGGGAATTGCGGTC | RARa:RXR (NR concentration 270 nM, RXRa partner concentration 90 nM) | 0.253 |
| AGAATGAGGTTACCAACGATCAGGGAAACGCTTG | RARa:RXR (NR concentration 270 nM, RXRa partner concentration 90 nM) | 2.01 |
| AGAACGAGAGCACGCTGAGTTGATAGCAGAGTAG | RARa:RXR (NR concentration 270 nM, RXRa partner concentration 90 nM) | -0.666 |
| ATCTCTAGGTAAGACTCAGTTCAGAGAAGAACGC | RARa:RXR (NR concentration 270 nM, RXRa partner concentration 90 nM) | 0.299 |

## Task Report PBM binding z-score for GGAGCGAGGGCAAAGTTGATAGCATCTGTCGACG tested on RARa:RXR (NR concentration 270 nM, RXRa partner concentration 90 nM).
## Result 1.21

## Task Can you handle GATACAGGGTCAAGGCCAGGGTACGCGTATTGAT next?
## Result 5.19

## Task Can you handle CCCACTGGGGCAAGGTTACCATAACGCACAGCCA next?
## Result 1.05

* * *

system: RARa homodimer (NR concentration 270 nM); assay: PBM binding z-score (relative to random genomic background probes); higher = stronger binding; sequences stand for … in GC…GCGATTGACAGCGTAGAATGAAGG
Grouping by measured PBM binding z-score is done with the following cut points: group 1 = under -0.01, group 2 = from -0.01 up to 1, group 3 = 1 and over

## Task Kindly state the category for this sequence: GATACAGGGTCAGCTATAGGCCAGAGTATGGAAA
## Result group 2

* * *

tested on: RARg homodimer (NR concentration 270 nM); test: PBM binding z-score (relative to random genomic background probes); higher = stronger binding; sequences stand for … in GC…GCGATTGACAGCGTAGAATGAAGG
// label = T if PBM binding z-score is not less than 1, otherwise F

A selection of reference data follows.
| sequence chain | target desc | classification |
| --- | --- | --- |
| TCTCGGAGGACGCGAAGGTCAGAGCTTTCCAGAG | RARg homodimer (NR concentration 270 nM) | T |
| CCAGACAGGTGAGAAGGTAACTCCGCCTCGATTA | RARg homodimer (NR concentration 270 nM) | F |
| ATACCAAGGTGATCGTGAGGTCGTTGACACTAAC | RARg homodimer (NR concentration 270 nM) | F |
| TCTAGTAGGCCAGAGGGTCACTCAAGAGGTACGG | RARg homodimer (NR concentration 270 nM) | T |
| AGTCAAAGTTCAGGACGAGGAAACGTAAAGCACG | RARg homodimer (NR concentration 270 nM) | T |
| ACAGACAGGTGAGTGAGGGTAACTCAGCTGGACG | RARg homodimer (NR concentration 270 nM) | F |

## Task Is PBM binding z-score at least 1? Consider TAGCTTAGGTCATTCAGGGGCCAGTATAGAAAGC
## Result T

## Task Can you handle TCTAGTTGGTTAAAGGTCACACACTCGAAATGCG next?
## Result T

## Task Can you handle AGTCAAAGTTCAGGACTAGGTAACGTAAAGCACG next?
## Result T

## Task Can you handle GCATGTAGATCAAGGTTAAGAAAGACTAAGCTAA next?
## Result F

## Task Can you handle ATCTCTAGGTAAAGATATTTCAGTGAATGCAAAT next?
## Result F
